# System Under Test: αvβ3 integrin (K562/αvβ3+ cells) (Homo sapiens, UniProt P05106+P06756)
# Assay type: binding
# Assay Conditions: versus parent LXW7
Where a SMILES comes first, the peptide text is derived from it. Bridges are numbered along the chain shown (N, C = ends). [ ]: non-standard residue; d: D form. βAla = NCCC(=O)O
Reported decrease (loss) of binding affinity / potency relative to LXW7 values for the following molecules.
Value Kind: decrease (loss) of binding affinity / potency relative to LXW7

| Molecule | Result Value |
| --- | --- |
| CC(C)[C@H]1NC(=O)[C@@H](CC(=O)O)NC(=O)[C@H](CC(=O)O)NC(=O)CNC(=O)[C@H](CCCNC(=N)N)NC(=O)[C@@H](C)NC(=O)[C@H](N)CSSC[C@H](C(N)=O)NC1=O [peptide 8, caRGDdvc-NH2] (H-[dC][dA]RGD[dD][dV][dC]-NH2; disulfide 1-8 (inferred); N-terminus assumed) | 7.8 fold |
| CC(C)[C@H]1NC(=O)[C@@H](CC(=O)O)NC(=O)[C@H](CC(=O)O)NC(=O)CNC(=O)[C@H](CCCNC(=N)N)NC(=O)CCNC(=O)[C@H](N)CSSC[C@H](C(N)=O)NC1=O [peptide 9, c-βala-RGDdvc-NH2] (H-[dC][βAla]RGD[dD][dV][dC]-NH2; disulfide 1-8 (inferred); N-terminus assumed) | 11 fold |
